assay: protease stability score; higher = more stable; yeast display proteolysis, trypsin and chymotrypsin;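 further: log10 excess protease needed over predicted unfolded state with 0 meaning unfolded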
Parameter: protease stability score. Scope: all listed entries.
MEASURED PROPERTY: protease stability score

EEDDQRRLQEWLSQGNFEHLAQNADKDAKASVGEYRVHGREQIKRFLERMQDRIDKVHYETVHFHNGVLRATFRFTVNGKQVVMQMRIEARGDKIKYIEMQARDEDNLKKWKELES: 1.03
DEEDKMTELTSRMIQAVRQNDFHKIVDQFDKNVTFEVGDHRVHGRTQAQEWARHLLRRVDHATVNLKHVEVQGDTARVKMQLILDRNGRRETRTVIIEAEIDGDKVRAKKLSIG: 1.66
DEEARKLVHRILEAWKHGDEEHFKEQFDPNVDVDVGDKRYHGRHTIATRVQRELDEIDIRIEVHHITVEGDRADMDATVVLNINGKPVHVRVTWVFQITNGVAVYMQLRVSEDQRREQES: 1.15
DEERVKQLAEKAFKAIQNNDQEKLEKMGKPNVQYEYVDKKYEGPEVVKVVIKVVQKIGAKLETQEQEVKGDTARATFQYKNGDKTMQTTAEVRYKGDKMEEFRMELSDEVKKVVHQG: -0.207
DEQNQIKKIADDLETAARTNDPDKLLNMVDPNAKITYGDEEVHGRREAKRWLKEVNDHVDHMHVDIKRVHASGDKFTLRYRLVLVQNGKKDTTRVVATLRRTDGRVQIQSIDSG: 0.033
